Test target: T1, extracellular domain of activin receptor type IIB (ActRIIBecd), biotinylated (Homo sapiens (Human), UniProt Q13705 27-117, amino-biotinylated with amine-PEG3-Biotin)
T1 construct: immobilised on a streptavidin-coated sensor chip; also called biotinylated ActRIIBecd; extracellular domain of ActRIIB
T1 sequence: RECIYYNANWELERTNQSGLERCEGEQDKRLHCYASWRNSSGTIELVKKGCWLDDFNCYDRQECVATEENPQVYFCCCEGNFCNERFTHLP
Protocol summary: BIAcore SPR, biotinylated ActRIIBecd on chip; SD ±13.44 nM
pKd: −log10 of the molar value.
Recorded endpoint: pKd

binder="EPLGGARWEAFDVTDAVQSHRRSQRASRKCCLVLRAVTAS [Clone No. 29 domain (ActRIIBecd-associated polypeptide)]" val=7.24

Recorded values, source patent US20190071480A1.
